Taken from PubChem BioAssay (NCI).

# assay.summary: NCI Yeast Anticancer Drug Screen. Data for the mec2-1 strain (AID 157)
# protocol.conditions: S. cerevisiae mec2-1 strain, at 50.0 µM
This is part of a sample that, as a whole, favours compounds with a hit. Of some 79,000 tested, about 15% had one in any assay. Activity calls are given as the source filed them. Rule as the data show it: active = growth inhibition above about 70%; inactive = the rest.
API: response.call in true (active), false (inactive)

Query: Dear colleague, could you share the recorded outcome for COC1(OC)CC(CCl)OC1(OC)OC (stereo unspecified) when you have a moment?
Reply: false

Query: Repeat with Cn1c(=O)c2c(nc3sc4nc5ccccc5nc4n32)n(C)c1=O
Reply: false

Query: Now consider O=C1C(=O)N(c2ccccc2Cl)C(=O)N1Cc1ccccc1 and answer again.
Reply: false

Query: Can you check O=C(O)CCSC1=CC(=O)C(SCCC(=O)O)=CC1=O next?
Reply: false

Query: Entry O=C1C2CC3C(C2)C13 please
Reply: false

Query: Also COc1ccc(/C=C(\C)C=C(C#N)C#N)cc1 ?
Reply: false

Query: // repeat for CCN1C(=O)CS/C1=N/NC(=O)C(O)(c1ccccc1)C1C=CC=CC1 (stereo unspecified) and report
Reply: false

Query: Now the same for CC(=O)Nn1cnc(C(=N)C#N)c1N
Reply: false

Query: Ok, now COC(=O)CCS(=O)(=O)Cc1ccccc1
Reply: false

Query: Now the same for CCc1cc(C)cc(CC)c1N
Reply: false

Query: Thanks! And COC(=O)c1ccc(Cc2ccc(C(=O)OC)o2)o1 ?
Reply: false

Query: Consider next the compound COC(CCCl)c1ccccc1 (stereo unspecified) in the same way.
Reply: false

Query: Also N#Cc1ccccc1Br ?
Reply: false

Query: Another compound to check: Cc1ccccc1NC(=S)NC(=O)c1ccccc1
Reply: false

Query: What about CCOC(=O)CNc1c(OCc2ccccc2)c(=O)c1=O ?
Reply: false

Query: Next up: Nc1ccc2[nH]cc(CCC(=O)O)c2c1
Reply: false

Query: // same read-out, input: O=[N+]([O-])c1ccc(Cl)cc1N/N=C/c1cccs1
Reply: false

Query: Next compound: NC(=S)N/N=C\C(CC(O)C(O)CO)=N\NC(N)=S (stereo unspecified)
Reply: false

Query: How about O=C1OC(C2OC(=O)C(=O)C2C(=O)c2cccc([N+](=O)[O-])c2)C(C(=O)c2cccc([N+](=O)[O-])c2)C1=O (stereo unspecified) ?
Reply: false

Query: CCOC(=O)c1ccc(CSc2ccccc2C(=O)OCC)cc1 , same question.
Reply: false

Query: For COc1cc2c(cc1OC)C(=O)N(c1ccc(O)cc1)C2=O then?
Reply: false

Query: Same question for CC(=O)[O-].O=S(=O)(Nc1ncccn1)c1ccc(N=Cc2ccccc2O)cc1.O=S(=O)(Nc1ncccn1)c1ccc(N=Cc2ccccc2O)cc1.[Cu+2] please.
Reply: false

Query: Also Cc1cn(C(=O)NC23CC4CC(CC(C4)C2)C3)c(=O)[nH]c1=O , if possible.
Reply: false

Query: Try this compound next: CC(C)(C)n1nc(C2CC2)cc1NC(=O)Nc1ccc(Cl)cc1
Reply: false

Query: Likewise for Brc1ccc2nc(-c3ccccc3)c3ccccc3c2c1 ?
Reply: false

Query: Further, for N=C1CCCC1C(=S)SCCC(N)=O (stereo unspecified) ?
Reply: false

Query: Now try C/C(C=C1C(=O)NC(=S)NC1=O)=C\c1ccccc1 .
Reply: false

Query: Now give it for Cc1ccc2nc(N=C(N)N)[nH]c2c1 too.
Reply: false

Query: What do you have for Cc1nc2c(N3CCOCC3)ncnc2o1 ?
Reply: false

Query: How about CCCCCCCC(=O)Nc1ccc(-n2c(=O)cc(C)n2C)cc1 ?
Reply: false

Query: Next compound up: CC(C)Oc1c(NCCO)c2cc(Cl)ccc2oc1=O
Reply: false

Query: Let us now turn to NOCc1cc(Cl)sc1Cl
Reply: false

Query: Similarly, Cc1ccccc1NCC#N ?
Reply: false

Query: How about CCc1ccc(NC(=O)C(c2ccccc2)c2ccccc2)cc1 ?
Reply: false

Query: Please give the result for O=C1c2ccc(=O)[nH]c2C(=O)C2CC3=C(CCCC3)CC12 (stereo unspecified) too.
Reply: false

Query: What do you get for CN1CCN(C)c2nc3ccccc3nc21 ?
Reply: false

Query: Param item: COc1cc(Nc2cnc3cc(N)ccc3n2)cc(OC)c1OC
Reply: false

Query: Try this compound too: Cn1cncc1CC1COC(=O)C1C(O)c1ccccc1 (stereo unspecified)
Reply: false

Query: // query: O=C1NC2Cc3ccccc3C(C2)O1 (stereo unspecified)
Reply: false

Query: Similarly, CCOC(=O)CN(c1c(C)cc(C)c(N(CC(=O)OCC)S(=O)(=O)c2ccccc2)c1C)S(=O)(=O)c1ccccc1 ?
Reply: false

Query: Now the compound CCCCN(C=O)CCCC
Reply: false

Query: Try CC(=O)NNc1nc(C)c(C(=O)NNC(=O)C(=O)Nc2ccc(C)c(C)c2)s1 next.
Reply: false

Query: // query: COc1cc(C2CC(C)=C(C)CC2C(=O)O)cc(OC)c1OC (stereo unspecified)
Reply: false

Query: What about this compound? c1ccc2c(c1)CCC/C2=N\OCC1CO1 (stereo unspecified)
Reply: false

Query: Another compound to look at: SC(S)(Cc1ccccc1)Cc1ccccc1
Reply: false

Query: Next compound: CCCc1nc2ccc(C)cc2[nH]1
Reply: false

Query: Also O=C1C(Cl)=C(SCc2ccccc2)C(=O)c2ccccc21 ?
Reply: true

Query: And for CC(C)/C(Cl)=N/OC(=O)Nc1ccc(Br)cc1 ?
Reply: false

Query: Record: CC(C)(C)C(Br)CC(N)=O (stereo unspecified)
Reply: false

Query: How about this compound: NC(=O)C(=CNC(=S)Nc1cccc(C(F)(F)F)c1)C(N)=O
Reply: false

Query: Further, for Cc1ccc([N+](=O)[O-])cc1N1CCNC1=O ?
Reply: false

---

Kindly state growth inhibition for each of the entries shown.
# assay.summary: NCI Yeast Anticancer Drug Screen. Data for the mec2-1 strain (AID 157)
# protocol.conditions: S. cerevisiae mec2-1 strain, at 50.0 µM, stronger effect = higher value
About 79,000 compounds went through this panel and 15% of them were active in at least one assay; those are over-represented in the sample as a whole. Activity calls are given as the source filed them. Rule as the data show it: active = growth inhibition above about 70%; inactive = the rest.

Query: // growth inhibition lookup, key: O=C1NC2OC(CO)C(O)C(O1)C2O (stereo unspecified)
Reply: 19.4% (inactive)

Query: Now the same for CCOC(=O)c1n[nH]c(C)c1C/C(=N/O)c1ccccc1
Reply: -24.4% (inactive)

Query: Try this compound too: CCOC(=O)C(=CNc1ccc2c(c1)OCO2)C(=O)OCC
Reply: -11.2% (inactive)

Query: Cool, now COc1ccc(Cc2cc(N=NC(N)=O)c(C)cc2O)cc1
Reply: -5.65% (inactive)

Query: Next: C=Cc1ccc(OC2OC(CO)C(OC3OC(CO)C(O)C(O)C3O)C(O)C2O)cc1 (stereo unspecified)
Reply: -18.9% (inactive)

Query: Next compound: CCc1ccccc1NC(=O)/C=N/O
Reply: -24.1% (inactive)

Query: Now consider FC(F)(F)C(F)(F)C(F)(F)C(F)(F)C(F)(F)C(F)(F)C(F)(F)c1noc(C(F)(F)C(F)(F)C(F)(F)C(F)(F)C(F)(F)C(F)(F)C(F)(F)F)n1 and answer again.
Reply: 6.5% (inactive)

Query: Again, but for CCCNC(C#N)c1ccc(C(C#N)NCCC)cc1 (stereo unspecified)
Reply: -10.4% (inactive)

Query: Then what about the compound CC(=O)N(C(=O)CC(=O)NN)c1ccc(Cl)cc1 ?
Reply: -21.3% (inactive)

Query: And then CCCCCOC(c1cc2c(cc1Br)OCO2)C(C)Br (stereo unspecified) , what is it?
Reply: 22.1% (inactive)

Query: Same question for CC12CS(=O)(=O)CC1O2 (stereo unspecified) please.
Reply: 3.25% (inactive)

---

# assay.summary: NCI Yeast Anticancer Drug Screen. Data for the rad50 strain (AID 155);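 also: 0% = growth of vehicle-only cultures of the same strain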
# protocol.conditions: S. cerevisiae rad50 strain growth inhibition; at 50.0 µM; stronger effect = higher value
The panel holds about 79,000 compounds, 15% with a hit somewhere; the sample as a whole holds those more often.
Exercise: for every item that follows, state its recorded growth inhibition.
The reply should contain only the number, in %.

Query: I am curious: what growth inhibition value has been reported for C=CCSc1nc2ccc(N=Cc3ccc([N+](=O)[O-])cc3)cc2s1 ?
Reply: 2.05

Query: Consider next the molecule C=C(c1ccccc1)N1N=NC2CCOC21 (configuration not stated) in the same way.
Reply: -4.25

Query: What about O=C(O)Cc1cccc(C(=O)O)c1 ?
Reply: -1.55

Query: Entry O=C(/C=C(\O)C(=O)O)/C=C(\O)c1ccc(Cl)cc1 please
Reply: -15.7

Query: Then this molecule: C=CCCC(=O)OC(C)(C)C
Reply: 16.8

Query: Follow-up item: CCCOC1CC(C)C(O)C(C)C1 (configuration not stated)
Reply: 24.6

Query: Same again, this time with COc1ccc(Cl)cc1NC(=O)c1cccc([N+](=O)[O-])c1O
Reply: -14.9
